# Method: Quantitative High-Throughput drug screen in 47 multiple myeloma cell lines against the NCATS MIPE library collection: KMS12PE_JCRB cell viability assay (AID 1918972); also: nearly all actives have a fitted effect of over 30% in size
# Settings: KMS12PE myeloma viability, CellTiter-Glo ATP, 48 h; series mostly up to 45.8 µM
Records with an inconclusive call do not appear. The source made the active and inactive calls. Calls follow the shape of the dose curve; as a rule, active = well fitted cell-killing curve with a large enough effect; inconclusive = small, poorly fitted or top-dose-only effect, or effect the other way; inactive = no such curve, though single readings can be large or run the other way.
Possible outcomes: active, inactive

[[record]]
compound = "CN1CC(=O)N2C(Cc3c([nH]c4ccccc34)[C@H]2c2ccc3c(c2)OCO3)C1=O (some centres not stated)"
qualitative_label = "inactive"

[[record]]
compound = "COC(=O)Nc1ccc(-c2nc(N3CCOCC3)c3cnn(C4CCN(C(=O)OC)CC4)c3n2)cc1"
qualitative_label = "active"

[[record]]
compound = "CC(C)C[C@@H](N)[C@H](O)C(=O)N[C@H](C(=O)N[C@H](C(=O)N[C@@H](CC(=O)O)C(=O)O)C(C)C)C(C)C"
qualitative_label = "inactive"

[[record]]
compound = "O=C(c1ccc(C=Cc2n[nH]c3ccccc23)cc1)N1CCNCC1"
qualitative_label = "active"

[[record]]
compound = "Nc1ncnc2c1ncn2[C@@H]1O[C@H](CO)[C@@H](O)[C@@H]1O"
qualitative_label = "active"

[[record]]
compound = "COc1cccc(OC)c1-c1cc(C(=O)NC2(C(=O)O)C3CC4CC(C3)CC2C4)nn1-c1ccnc2cc(Cl)ccc12 (configuration not stated)"
qualitative_label = "inactive"

[[record]]
compound = "COc1cc2c(cc1OC)[C@@H]1Cc3ccc(OC)c(OC)c3CN1CC2"
qualitative_label = "active"

[[record]]
compound = "Cc1cn([C@@H]2C[C@@H](O)[C@H](CO)O2)c(=O)[nH]c1=O"
qualitative_label = "inactive"

[[record]]
compound = "CCOC(=O)N1CCN([N+]([O-])=NOc2cc(ON=[N+]([O-])N3CCN(C(=O)OCC)CC3)c([N+](=O)[O-])cc2[N+](=O)[O-])CC1"
qualitative_label = "inactive"

[[record]]
compound = "O=c1[nH]nc(OCCCc2ccc(Cl)cc2)c(NCc2cccnc2)c1Br"
qualitative_label = "active"

[[record]]
compound = "CN1CC(=O)NC1=NC(=O)Nc1cccc(Cl)c1"
qualitative_label = "inactive"

[[record]]
compound = "CNc1nc(Nc2ccc(C(=O)N3CCOCC3)cc2OC)ncc1Cl"
qualitative_label = "inactive"

[[record]]
compound = "CN1C(=O)C[C@H](C(=O)N[C@@H](Cc2cnc[nH]2)C(=O)N2CCC[C@@H]2C(N)=O)NC1=O"
qualitative_label = "inactive"

[[record]]
compound = "OC(c1cc(C(F)(F)F)nc2c(C(F)(F)F)cccc12)C1CCCCN1 (configuration not stated)"
qualitative_label = "active"

[[record]]
compound = "CC(C)CN(C[C@@H](O)[C@H](Cc1ccccc1)NC(=O)O[C@H]1CO[C@H]2OCC[C@H]21)S(=O)(=O)c1ccc(N)cc1"
qualitative_label = "inactive"

[[record]]
compound = "O=C(Nc1ncc(SCCN2CCCC2)s1)[C@]1(c2ccc(S(=O)(=O)C3CC3)cc2)C[C@@H]1C1CCCCC1"
qualitative_label = "active"

[[record]]
compound = "OCCn1cc(-c2ccc3c(c2)CCC3=NO)c(-c2ccncc2)n1"
qualitative_label = "inactive"

[[record]]
compound = "CC1(C)CC(=O)c2c(C(F)(F)F)nn(-c3ccc(C(N)=O)c(NC4CCC(O)CC4)c3)c2C1 (configuration not stated)"
qualitative_label = "inactive"

[[record]]
compound = "CCc1cc(-c2n[nH]c(C)c2-c2ccc3c(c2)OCCO3)c(O)cc1O"
qualitative_label = "active"

[[record]]
compound = "O=C(O)c1nc(=O)[nH]c(=O)[nH]1"
qualitative_label = "inactive"

[[record]]
compound = "COc1ccc(-c2cc(=O)c3c(O)cc(O[C@@H]4O[C@H](CO[C@@H]5O[C@@H](C)[C@H](O)[C@@H](O)[C@@H]5O)[C@@H](O)[C@H](O)[C@@H]4O)cc3o2)cc1O"
qualitative_label = "inactive"

[[record]]
compound = "C#CCN(C)CC1=Cc2ccccc2Oc2ccccc21"
qualitative_label = "inactive"

[[record]]
compound = "CN(CC=CC#CC(C)(C)C)Cc1cccc2ccccc12"
qualitative_label = "inactive"

[[record]]
compound = "CCNC(=O)Nc1ccc(Oc2ncnc(N)c2C=NOC)cc1Cl"
qualitative_label = "active"

[[record]]
compound = "COc1cc2nc(-c3cc(F)ccc3O)nc(N[C@@H]3CNC[C@@H]3C(C)(C)O)c2cc1OC"
qualitative_label = "active"

[[record]]
compound = "O=C(O)c1ccc(O)c2ncc(N3CCOCC3)cc12"
qualitative_label = "active"

[[record]]
compound = "O=C(CO)N1CCC(c2[nH]nc(-c3ccc(Cl)cc3)c2-c2ccncn2)CC1"
qualitative_label = "inactive"

[[record]]
compound = "O=C1NC(=O)C(c2cnc3ccccn23)=C1c1cn2c3c(cccc13)CN(C(=O)N1CCOCC1)CC2"
qualitative_label = "active"

[[record]]
compound = "Cc1cc(CS(=O)(=O)c2ccccc2)cc(OCc2ccc(CN3CCC[C@H]3CO)cc2)c1"
qualitative_label = "active"

[[record]]
compound = "CC(C)C[C@@H](C(=O)N[C@H](C(=O)OC1CCCC1)c1ccccc1)[C@H](O)C(=O)NO"
qualitative_label = "active"

[[record]]
compound = "C[C@@H]1C[C@H]2[C@@H]3CCC4=CC(=O)C=C[C@]4(C)[C@@]3(F)[C@@H](O)C[C@]2(C)[C@@]1(O)C(=O)CO"
qualitative_label = "inactive"

[[record]]
compound = "N#CC(=C1Nc2ccccc2S1)c1ccnc(OCc2ccc(CN3CCOCC3)cc2)n1"
qualitative_label = "active"

[[record]]
compound = "O=C(O)Cc1cccc(OCCCN(Cc2cccc(C(F)(F)F)c2Cl)CC(c2ccccc2)c2ccccc2)c1"
qualitative_label = "inactive"

[[record]]
compound = "CCC(=C(c1ccc(O)cc1)c1ccc(OCCNC)cc1)c1ccccc1"
qualitative_label = "active"

[[record]]
compound = "CC(C)N(CCCNC(=O)Nc1ccc(C(C)(C)C)cc1)C[C@H]1O[C@@H](n2cc(Br)c3c(N)ncnc32)[C@H](O)[C@H]1O"
qualitative_label = "inactive"

[[record]]
compound = "CCCCC[C@H](O)C=C[C@H]1[C@H](O)CC(=O)[C@H]1CCCCCCC(=O)O"
qualitative_label = "inactive"

[[record]]
compound = "O=C(O)CCNc1cc(N2CCc3ccccc3CC2)nc(-c2ccccn2)n1"
qualitative_label = "inactive"


###

# Test system: HACAT
# Method: qHTS assay to identify novel small-molecules to repurpose for Merkel cell carcinoma treatment (AID 1296009); also: nearly all actives have a fitted effect of over 60% in size
# Settings: MCC and control cell lines, CellTiter-Glo viability, 72 h; at 44.8 µM (top of the series) unless noted
Inconclusive results are not listed. Active and inactive are the calls of the source. Calls come from the whole dose curve; as a rule, active = well fitted inhibition curve with a large enough effect; inconclusive = small, poorly fitted or top-dose-only effect; inactive = flat fitted curve, though single readings scatter.
Measured endpoint: outcome

[[record]]
compound = "N#Cc1c(N(CC(=O)O)CC(=O)O)sc(C(=O)O)c1CC(=O)O"
obs_value = "inactive"

[[record]]
compound = "C[C@@H](O)[C@H]1C(=O)N2C(C(=O)OCOC(=O)C(C)(C)C)=C(SC3CN(C4=NCCS4)C3)[C@H](C)[C@H]12"
obs_value = "inactive"

[[record]]
compound = "CN(C)CCOc1cc(-c2cn[nH]c2)ccc1NC(=O)C1COc2ccccc2O1 (configuration not stated)"
obs_value = "inactive"

[[record]]
compound = "C[C@@H](NC(=O)c1ncnc(N)c1Cl)c1ncc(C(=O)Nc2cc(C(F)(F)F)c(Cl)cn2)s1"
obs_value = "inactive"

[[record]]
compound = "Nc1ncnc2c1ncn2[C@@H]1O[C@H](CO)[C@@H](O)[C@@H]1O"
obs_value = "inactive"

[[record]]
compound = "CC1=C(C(=O)Nc2cc3cn[nH]c3cc2F)C(c2ccc(C(F)(F)F)cc2)CC(=O)N1 (configuration not stated)"
obs_value = "inactive"

[[record]]
compound = "O=C(C=Cc1ccc(O)cc1)c1ccc(O)cc1O"
obs_value = "inactive"


###

# Tested on: CP252
# Method: qHTS profiling for inhibitors of Plasmodium falciparum proliferation (AID 504749); also: nearly all actives have a fitted effect of over 60% in size
# Settings: P. falciparum in erythrocytes, SYBR Green DNA, 72 h; series mostly up to 28.7 µM
Records with an inconclusive call do not appear. The source made the active and inactive calls. The call rests on the fitted dose curve; in most records, active means well fitted inhibition curve with a large enough effect; inconclusive means small, poorly fitted or top-dose-only effect; inactive means flat fitted curve, though single readings scatter.
Possible outcomes: active, inactive

[[record]]
compound = "COc1c(C)c2c(c(O)c1CC=C(C)CCC(=O)OCCN1CCOCC1)C(=O)OC2"
qualitative_label = "active"

[[record]]
compound = "C=C1c2cccc(O)c2C(O)=C2C(=O)[C@@]3(O)C(O)=C(C(N)=O)C(=O)[C@@H](N(C)C)[C@@H]3[C@@H](O)[C@H]12"
qualitative_label = "inactive"

[[record]]
compound = "COc1ccnc(CS(=O)c2nc3ccc(OC(F)F)cc3[nH]2)c1OC (stereo unspecified)"
qualitative_label = "inactive"

[[record]]
compound = "CS(=O)(=O)c1ccc(C2=C(c3ccccc3)C(=O)OC2)cc1"
qualitative_label = "inactive"

[[record]]
compound = "O=C(O)c1nc(=O)[nH]c(=O)[nH]1"
qualitative_label = "inactive"

[[record]]
compound = "Cc1cc2nc3c(=O)[nH]c(=O)nc-3n(CC(O)C(O)C(O)CO)c2cc1C (stereo unspecified)"
qualitative_label = "inactive"

